experiment: folding enthalpy; higher = less favourable; fluorescence melt of hairpins on a sequencing array, two-state fit; conditions: sodium 0.088 M
Outcome label depends on folding enthalpy relative to -20 kcal/mol: at/above gives true, below gives false.

Seq string: GATCCCCAGCGGGATC ((((((....))))))
Group: false
//
Seq string: GGCTCGGGAAACCGAACC ((.((((....)))).))
Group: false
//
Seq string: GATCCTTAGTAGGATC ((((((....))))))
Group: false
//
Seq string: GATCGTTCGGACGATC ((((((....))))))
Group: false
//
Seq string: GACTGTGGAAACATAGTC ((((.((....)).))))
Group: false
//
Seq string: GCGCCTGCGAAAGCACGC (((..(((....))))))
Group: true
//
Seq string: GCAGCGGCGAAAGCCTGC (((..(((....))))))
Group: true
//
Seq string: GGAAATGCGAAAGCATCC (((..(((....))))))
Group: true
//
Seq string: GATCGTGAACACGATC ((((((....))))))
Group: false
//
Seq string: GTTCGCGGAAACGCGAGC (.(((((....))))).)
Group: true
//
Seq string: GATCACGCATGTGATC ((((((....))))))
Group: false
//
Seq string: GATTGGGCGAAAGCCATC (((..(((....))))))
Group: true
//
Seq string: GGTCTCCGAAAGGAACC (((.(((....))))))
Group: false
//
Seq string: GCATTCCGAAAGGAGTGC (((.(((....))).)))
Group: false
//
Seq string: GCCCTCCGAAAGGACGGC (((.(((....))).)))
Group: false
//
Seq string: GCTCAAGGAAACTTGGGC ((.((((....)))).))
Group: false
//
Seq string: GCCGAGTCGAAAGACGGC (((..(((....))))))
Group: false
//
Seq string: GCTCTCGAAAGAGCCAGC ((((((....)))..)))
Group: true
//
Seq string: GGGATCTCGAAAGAGCCC (((..(((....))))))
Group: false
//
Seq string: GGTGCAGGAAACCGCACC (((((.(....).)))))
Group: false
//
Seq string: GTTTCTCGAAAGAGAAC (((.(((....))))))
Group: true

---

assay: melting temperature; fluorescence melt of hairpins on a sequencing array, two-state fit, raised by 9.35 °C to match UV melts; settings: sodium 0.088 M
Tm overview

Seq string: GGCAAAGGAAACTTTACC ((.((((....)))).))
Tm / °C: 30.1
//
Seq string: GGCCAGGGAAACCTAGCC (((.(((....))).)))
Tm / °C: 43.2
//
Seq string: CGACGGCGGAAACGCTCG (((..(((....))))))
Tm / °C: 38.3
//
Seq string: GCTACACGAAAGTGAGC (((.(((....))))))
Tm / °C: 49.4
//
Seq string: GATCCGGCGGCGGATC ((((((....))))))
Tm / °C: 58.7
//
Seq string: GATGCCCGAAAGGGAATC (((.(((....))).)))
Tm / °C: 53.9
//
Seq string: GGACACGAAAGTGTATCC ((((((....)))..)))
Tm / °C: 36.1
//
Seq string: GACGTCACGAAAGTGGTC (((..(((....))))))
Tm / °C: 35.6
//
Seq string: GACATCGGAAACGGTGTC ((((.((....)).))))
Tm / °C: 52.2
//
Seq string: TCATCGAAAGATGA (((((....)))))
Tm / °C: 49.7
//
Seq string: GATCATGGGGATGATC ((((((....))))))
Tm / °C: 46.5
//
Seq string: GATCCATTGATGGATC ((((((....))))))
Tm / °C: 53.5
